Numbers sourced from paper PMC12690059.

Kindly supply the reported half-life values for the records listed here.
Type: in vivo, Sprague-Dawley rats
Conditions: Sprague-Dawley, rat, plasma, po, 54 mg/kg

Can you look up the measured half-life of "CCCCC/C=C\C/C=C\CCCCCCCC(=O)O" for me?
108 min

What about O=c1c(O[C@@H]2O[C@H](CO)[C@@H](O)[C@H](O)[C@H]2O)c(-c2ccc(O)c(O)c2)oc2cc(O)cc(O)c12 [Quercetin-3-O-glucoside] ?
192 min

* * *

Kindly supply the reported Cmax values for the records listed here.
Assay type: in vivo, Sprague-Dawley rats
Conditions: Sprague-Dawley, rat, plasma, po, 54 mg/kg
Quick reminder: number only, in ng/mL, skip the unit.

Can you look up the measured Cmax of CCCCC/C=C\C/C=C\CCCCCCCC(=O)O [Linoleic acid] for me?
2450

What about O=c1c(O[C@@H]2O[C@H](CO)[C@@H](O)[C@H](O)[C@H]2O)c(-c2ccc(O)c(O)c2)oc2cc(O)cc(O)c12 [Quercetin-3-O-glucoside] ?
1280
